Method: qHTS of pediatric cancer cell lines to identify multiple opportunities for drug repurposing: Primary screen for SK-N-MC cells (AID 1347093)
Assay Conditions: SK-N-MC viability, CellTiter-Glo luminescence, 48 h; series mostly up to 46 µM
Inconclusive results are not listed. The source made the active and inactive calls. Calls come from the whole dose curve; as a rule, active = well fitted cell-killing curve with a large enough effect; inconclusive = small, poorly fitted or top-dose-only effect; inactive = no such curve, though single readings can be large or run the other way.
Possible outcomes: active, inactive

{"Compound": "CN(C)C/C=C(/c1ccc(Br)cc1)c1cccnc1", "Assigned Class": "inactive"}
{"Compound": "C=CCc1ccccc1OCC(O)CNC(C)C (stereo not given)", "Assigned Class": "inactive"}
{"Compound": "CCCOc1ccccc1-c1nc2n[nH]nc2c(=O)[nH]1", "Assigned Class": "inactive"}
{"Compound": "CCN1CCc2nc(N)oc2CC1", "Assigned Class": "inactive"}
{"Compound": "O=C(O)CN(CCN(CC(=O)O)CC(=O)O)CCN(CC(=O)O)CC(=O)O", "Assigned Class": "inactive"}
{"Compound": "NC(N)=N/N=C/c1c(Cl)cccc1Cl", "Assigned Class": "inactive"}
{"Compound": "CC(C)NNC(=O)c1ccncc1", "Assigned Class": "inactive"}
{"Compound": "CCN(CC)CCOCCOC(=O)C1(c2ccccc2)CCCC1", "Assigned Class": "inactive"}
{"Compound": "NC/C=C/C(=O)O", "Assigned Class": "inactive"}
{"Compound": "CCc1c(C)[nH]c2c1C(=O)C(CN1CCOCC1)CC2 (stereo not given)", "Assigned Class": "inactive"}
{"Compound": "CN(C)CC[C@@H](c1ccc(Br)cc1)c1ccccn1", "Assigned Class": "inactive"}
{"Compound": "COC(=O)C1=C(C)NC(C)=C(C(=O)OC(C)(C)CN(C)CCC(c2ccccc2)c2ccccc2)C1c1cccc([N+](=O)[O-])c1 (stereo not given)", "Assigned Class": "active"}
{"Compound": "CNC1(C)C2CCC(C2)C1(C)C (stereo not given)", "Assigned Class": "inactive"}
{"Compound": "COc1ccc(CN(CCN(C)C)c2ccccn2)cc1", "Assigned Class": "inactive"}
{"Compound": "CCCNC(C)C(=O)Nc1ccccc1C (stereo not given)", "Assigned Class": "inactive"}
{"Compound": "c1ccc2c(c1)CCCC2C1=NCCN1 (stereo not given)", "Assigned Class": "inactive"}
{"Compound": "COc1ccc([C@@H]2Sc3ccccc3N(CCN(C)C)C(=O)[C@@H]2OC(C)=O)cc1", "Assigned Class": "inactive"}
{"Compound": "C[C@@H](O)[C@H]1C(=O)N2C(C(=O)O)=C(SCCN=CN)C[C@H]12", "Assigned Class": "inactive"}
{"Compound": "Nc1ncn([C@@H]2O[C@H](CO)[C@@H](O)[C@H]2O)c(=O)n1", "Assigned Class": "active"}
{"Compound": "CCN1CCC[C@H]1CNC(=O)c1c(O)c(Cl)cc(Cl)c1OC", "Assigned Class": "inactive"}
{"Compound": "NC(=Nc1ccccc1)Nc1ccccc1", "Assigned Class": "inactive"}
{"Compound": "O=C(O)CCCCCCCC(=O)O", "Assigned Class": "inactive"}
{"Compound": "C#CCN(C)CCCOc1ccc(Cl)cc1Cl", "Assigned Class": "inactive"}
{"Compound": "CC(=O)[C@]1(O)Cc2c(O)c3c(c(O)c2[C@@H](O[C@H]2C[C@H](N)[C@H](O)[C@H](C)O2)C1)C(=O)c1ccccc1C3=O", "Assigned Class": "active"}
{"Compound": "OC(CCN1CCCCC1)(c1ccccc1)C1CCCCC1 (stereo not given)", "Assigned Class": "inactive"}
